# target.under.test: CDK12 (Homo sapiens, UniProt Q9NYV4)
# Construct: endogenous in cells; host or cells: CAL-120 human breast cancer cells (DSMZ ACC 459)
# Sequence (Q9NYV4 whole entry): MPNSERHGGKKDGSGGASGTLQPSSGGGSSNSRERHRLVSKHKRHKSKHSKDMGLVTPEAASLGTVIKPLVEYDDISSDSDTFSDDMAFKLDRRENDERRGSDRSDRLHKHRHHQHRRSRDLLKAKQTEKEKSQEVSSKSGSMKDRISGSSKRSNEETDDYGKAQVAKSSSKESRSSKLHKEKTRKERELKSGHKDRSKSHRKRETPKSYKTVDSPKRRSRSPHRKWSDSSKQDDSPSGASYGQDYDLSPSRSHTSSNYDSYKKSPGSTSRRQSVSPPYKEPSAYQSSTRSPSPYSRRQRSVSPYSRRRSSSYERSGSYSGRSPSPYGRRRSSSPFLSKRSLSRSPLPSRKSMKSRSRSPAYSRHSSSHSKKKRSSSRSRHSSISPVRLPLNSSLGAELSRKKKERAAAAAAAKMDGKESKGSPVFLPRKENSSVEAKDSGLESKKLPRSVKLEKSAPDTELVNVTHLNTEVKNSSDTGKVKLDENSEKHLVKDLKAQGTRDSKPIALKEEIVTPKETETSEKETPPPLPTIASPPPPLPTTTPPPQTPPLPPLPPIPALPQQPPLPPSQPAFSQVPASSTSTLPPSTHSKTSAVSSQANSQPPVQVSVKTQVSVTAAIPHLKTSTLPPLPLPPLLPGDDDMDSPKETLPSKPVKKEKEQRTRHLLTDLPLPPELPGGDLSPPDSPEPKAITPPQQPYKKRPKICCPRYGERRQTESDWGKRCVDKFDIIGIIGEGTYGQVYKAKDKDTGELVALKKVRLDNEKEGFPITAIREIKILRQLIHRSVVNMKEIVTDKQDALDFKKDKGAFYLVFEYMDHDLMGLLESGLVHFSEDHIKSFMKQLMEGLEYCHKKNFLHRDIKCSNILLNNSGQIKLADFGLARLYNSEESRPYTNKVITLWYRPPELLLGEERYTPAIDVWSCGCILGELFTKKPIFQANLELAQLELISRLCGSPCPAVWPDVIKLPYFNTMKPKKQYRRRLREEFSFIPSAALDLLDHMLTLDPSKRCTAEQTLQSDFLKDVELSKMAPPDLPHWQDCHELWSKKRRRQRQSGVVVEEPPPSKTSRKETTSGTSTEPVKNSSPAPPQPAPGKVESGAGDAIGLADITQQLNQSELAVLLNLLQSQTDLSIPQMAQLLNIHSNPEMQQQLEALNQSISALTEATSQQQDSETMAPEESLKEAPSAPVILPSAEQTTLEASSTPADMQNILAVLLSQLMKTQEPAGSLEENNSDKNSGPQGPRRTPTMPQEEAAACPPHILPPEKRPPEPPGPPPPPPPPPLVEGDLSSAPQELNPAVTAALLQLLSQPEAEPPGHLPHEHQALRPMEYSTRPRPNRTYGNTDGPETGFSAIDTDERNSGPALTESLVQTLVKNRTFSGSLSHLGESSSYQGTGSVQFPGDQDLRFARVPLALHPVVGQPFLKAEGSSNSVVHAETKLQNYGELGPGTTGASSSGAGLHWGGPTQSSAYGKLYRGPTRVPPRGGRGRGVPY
# Sequence (O75909 whole entry partner): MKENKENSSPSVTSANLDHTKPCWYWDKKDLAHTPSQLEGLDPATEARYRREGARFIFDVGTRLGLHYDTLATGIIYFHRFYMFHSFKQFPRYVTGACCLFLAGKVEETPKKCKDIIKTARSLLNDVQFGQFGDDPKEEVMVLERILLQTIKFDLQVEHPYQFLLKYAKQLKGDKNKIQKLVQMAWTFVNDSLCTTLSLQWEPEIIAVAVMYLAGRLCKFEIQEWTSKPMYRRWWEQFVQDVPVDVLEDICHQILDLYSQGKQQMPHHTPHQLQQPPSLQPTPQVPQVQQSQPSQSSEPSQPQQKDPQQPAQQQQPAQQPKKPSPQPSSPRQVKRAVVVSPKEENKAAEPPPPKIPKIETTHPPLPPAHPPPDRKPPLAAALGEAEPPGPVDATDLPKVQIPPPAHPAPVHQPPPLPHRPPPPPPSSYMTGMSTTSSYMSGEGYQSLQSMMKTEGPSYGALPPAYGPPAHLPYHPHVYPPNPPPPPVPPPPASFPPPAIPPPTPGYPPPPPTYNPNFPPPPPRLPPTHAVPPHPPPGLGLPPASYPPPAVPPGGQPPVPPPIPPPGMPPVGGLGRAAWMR
# method.notes: CDK12 nuclear protein level: immunofluorescence/high content analysis in CAL-120 cells
# Assay type: cell-based
# assay.setup: CAL-120 cells; 24 h; nuclear CDK12 staining intensity; median; read-out: CDK12 degradation IF DC50 - [mol/l] (median)
# Protocol: 6. CDK12 Nuclear Protein Level: Immunofluorescence/High Content Analysis […] CAL-120 human breast cancer cells (DSMZ ACC 459) are seeded in 1536-well microtiter plates (800 cells per well) containing 50 nanoL of compounds in Dose-Response. […] Nuclear and cytoplasmic intensity as well as the nuclear/cytoplasmic intensity ratio is determined by automated image analysis using custom generated scripts (MetaXpress). […]
measured.attribute: DC50 (nM)

Examples with their reported DC50 follow.
Fc1ccc2[nH]c(CNc3nn(C4CCOCC4)c4nc(C5CC5)cnc34)nc2c1F = 11.5
COC(C)(C)CCn1nc(NCc2nc3ccccc3[nH]2)c2ncc(C3CC3)nc21 = 21
CC(C)(O)C1CC(n2nc(NCc3nc4ccccc4[nH]3)c3ncc(C4CC4)nc32)C1 (mixture of isomers) = 7.12
CN1CCC(n2nc(NCc3nc4cc(Cl)c(Cl)cc4[nH]3)c3ncc(C4CC4)nc32)CC1 = 4.66
CN1CCCC(n2nc(NCc3nc4ccccc4[nH]3)c3ncc(C4CC4)nc32)CC1 (single isomer, unassigned) [Example 37] = 12.6
c1ccc2[nH]c(CNc3nn(C4COC4)c4nc(C5CC5)cnc34)nc2c1 = 46.9
O[C@H]1CC[C@@H](n2nc(NCc3nc4ccccc4[nH]3)c3ncc(C4CC4)nc32)CC1 = 10.7
OC[C@H]1C[C@H](n2nc(NCc3nc4ccccc4[nH]3)c3ncc(C4CC4)nc32)C1 = 13.8
Cn1nc(NCc2nc3ccccc3[nH]2)c2ncc(C3CC3)nc21 = 155
CC(CCN(C)C)n1nc(NCc2nc3ccccc3[nH]2)c2ncc(C3CC3)nc21 (single isomer, unassigned) [Example 63] = 912

A: OC1(Cn2nc(NCc3nc4ccccc4[nH]3)c3ncc(C4CC4)nc32)CCC1
B: CC(C)(C)OC(=O)N1CCC(n2nc(NCc3nc4ccccc4[nH]3)c3ncc(C4CC4)nc32)CC1
C: O[C@H]1CC[C@H](n2nc(NCc3nc4cc(F)ccc4[nH]3)c3ncc(C4CC4)nc32)CC1
D: CC(C)n1nc(NCc2nc3ccccc3[nH]2)c2ncc(C3CC3)nc21
[ask] Put the entries in order of DC50, starting with the largest number. Reply: labels, ordered per the request.
[reply] B, D, A, C
(B: 74.9 nM, D: 49.6 nM, A: 18.7 nM, C: 7.11 nM)

###

# target.under.test: CYCLIN K (Homo sapiens, UniProt O75909)
# Construct: endogenous in cells; host or cells: CAL-120 human breast cancer cells (DSMZ ACC 459)
# method.notes: CYCLIN K nuclear protein level: immunofluorescence/high content analysis in CAL-120 cells
# Format: cell-based
# assay.setup: 24 h, nuclear CCNK staining intensity, median, read-out: CYCLIN K degradation IF, DC50- [mol/l] (median)
measured.attribute: DC50 (nM)

OC[C@H]1C[C@@H](n2nc(NCc3nc4ccccc4[nH]3)c3ncc(C4CC4)nc32)C1 [Example 47] = 6.29
CN(C)CCn1nc(NCc2nc3ccccc3[nH]2)c2ncc(C3CC3)nc21 [Example 68] = 20.7

a: COC(C)(C)CCn1nc(NCc2nc3ccccc3[nH]2)c2ncc(C3CC3)nc21 [Example 67]
b: c1ccc2[nH]c(CNc3nn(CC4CCC4)c4nc(C5CC5)cnc34)nc2c1 [Example 75]
c: c1ccc2[nH]c(CNc3nn(C4CCCC4)c4nc(C5CC5)cnc34)nc2c1 [Example 39]
d: Cc1cccc2[nH]c(CNc3nn(C4CCN(C)CC4)c4nc(C5CC5)cnc34)nc12 [Example 8]
e: CN1CCC(n2nc(NCc3nc4cc(C(F)(F)F)ccc4[nH]3)c3ncc(C4CC4)nc32)CC1 [Example 25]
[ask] // smallest DC50 at index 0, largest at the end Labels, requested order.
[reply] e, d, a, c, b
(e: 0.543 nM, d: 6.22 nM, a: 15.6 nM, c: 38.7 nM, b: 124 nM)
